target: Type II 5α-Reductase from Human Prostate (Homo sapiens); construct: The same procedure as above was used for preparations using tissue from prostate surgery; from tissue; host or cells: human prostate tissue from surgery, homogenate, 100,000×g pellet; assay: Human Type II 5α-reductase assay (conversion of [3H]-testosterone to 5α-reduced metabolites); assay type: biochemical; details: pH 5.5, 0.3 μM; sodium acetate pH 5.5, 25°, 30 min; compared to control reaction mixtures; read-out: percent inhibition of Type II AR
Sequence (P31213 whole entry): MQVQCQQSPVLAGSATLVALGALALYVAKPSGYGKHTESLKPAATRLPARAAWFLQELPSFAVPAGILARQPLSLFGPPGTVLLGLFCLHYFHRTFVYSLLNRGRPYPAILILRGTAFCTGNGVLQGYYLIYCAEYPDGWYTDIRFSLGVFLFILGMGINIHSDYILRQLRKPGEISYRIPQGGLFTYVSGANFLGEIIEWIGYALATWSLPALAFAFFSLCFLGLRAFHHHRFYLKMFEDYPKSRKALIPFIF
Measured inhibition at 0.3 µM, listed per entry for reference.
Numeric answer only, unit % assumed.

Worked examples, 5 compounds total:
CN1C(=O)CC[C@]2(C)c3ccc(-c4cccc(Cl)c4)cc3CC[C@@H]12 :: 19
CN1C(=O)CC[C@]2(C)c3ccc(-c4ccc(Oc5ccccc5)cc4)cc3CC[C@@H]12 :: 3
CN1C(=O)CC[C@]2(C)c3ccc(-c4ccc5c6c(cccc46)CC5)cc3CC[C@@H]12 :: 33
CN1C(=O)CC[C@]2(C)c3ccc(C(=O)Oc4ccccc4)cc3CC[C@@H]12 :: 41
CN1C(=O)CC[C@]2(C)c3ccc(Sc4cccc(Cl)c4)cc3CC[C@@H]12 :: 51

[in] Report measured inhibition at 0.3 µM on Type II 5α-Reductase from Human Prostate (Homo sapiens); entry: CC(=O)N1CCc2cc(-c3ccc4c(c3)CC[C@H]3N(C)C(=O)CC[C@]43C)cc([N+](=O)[O-])c21
[out] 13

[in] Report measured inhibition at 0.3 µM on Type II 5α-Reductase from Human Prostate (Homo sapiens); entry: CN1C(=O)CC[C@]2(C)c3ccc(-c4cccnc4)cc3CC[C@@H]12
[out] 22

[in] Report measured inhibition at 0.3 µM on Type II 5α-Reductase from Human Prostate (Homo sapiens); entry: CN1C(=O)CC[C@]2(C)c3ccc(CCCc4ccccc4)cc3CC[C@@H]12
[out] 44

[in] Report measured inhibition at 0.3 µM on Type II 5α-Reductase from Human Prostate (Homo sapiens); entry: CC(C)c1cccc2sc(-c3ccc4c(c3)CC[C@H]3N(C)C(=O)CC[C@]43C)nc12
[out] 45

[in] Report measured inhibition at 0.3 µM on Type II 5α-Reductase from Human Prostate (Homo sapiens); entry: C[C@]12CCC(=O)N[C@@H]1CCc1cc(Sc3ccc4ccccc4n3)ccc12
[out] 56

[in] Report measured inhibition at 0.3 µM on Type II 5α-Reductase from Human Prostate (Homo sapiens); entry: CN1C(=O)CC[C@]2(C)c3ccc(-c4ccc5c(c4)CCC5=O)cc3CC[C@@H]12
[out] 16

[in] Report measured inhibition at 0.3 µM on Type II 5α-Reductase from Human Prostate (Homo sapiens); entry: CN1C(=O)CC[C@]2(C)c3ccc(-c4cccc5ccccc45)cc3CC[C@@H]12
[out] 41

[in] Report measured inhibition at 0.3 µM on Type II 5α-Reductase from Human Prostate (Homo sapiens); entry: CN1C(=O)CC[C@]2(C)c3ccc(-c4ccc([N+](=O)[O-])s4)cc3CC[C@@H]12
[out] 33
